The origin of these recorded values is patent US7329737.

Molecular target: hK1 (human tissue kallikrein 1), recombinant (human, UniProt P06870 25-262)
Test: cell-based or functional assay
Hi there, I'd appreciate the recorded IC50 (nM), inhibition of hK1 hydrolysis of Pro-Phe-Arg-AMC for every entry that follows.
Give bare numbers, in nM.

binder: M0093-F09 (Fab, V domains shown, also called M093-F09) VH: EVQLLESGGGLVQPGGSLRLSCAASGFTFSDYRMWWVRQAPGKGLEWVSYIVPSGGQTSYADSVKGRFTISRDNSKNTLYLQMNSLRAEDTAVYYCARGSAYQRRTYSSGWYSASGRRGTAEYFQHWGQGTLVTVSS VL: AQSALTQPASVSGSPGQSITISCTGTSTDDVGGYNYVSWYQQHPGKAPKLMIYDVINRPSGVSNRFSGSKSGNTASLTISGLQAEDEADYYCSSYTSRGTRVFGTGTKVTVLG
value.unit: nM
reported.value: 2.5

I would be grateful if you could provide IC50 (nM), inhibition of hK1 hydrolysis of Pro-Phe-Arg-AMC for each of the following entries.
1. M0098-E09 (Fab, V domains shown) VH: EVQLLESGGGLVQPGGSLRLSCAASGFTFSRYGMQWVRQAPGKGLEWVSYIYPSGGGTVYADSVKGRFTISRDNSKNTLYLQMNSLRAEDTAVYYCARRVAVAGSWYYYYYGMDVWGQGTTVTVSS VL: DIQMTQSPSSVSASVGDSVTISCWTIYDISSWLAWYQQRPGQAPKLLIYAASRLATGVPSRFRGSGSGTDFTLTITNLQPEDVATYYCQQTKDFPLTFGGGTRVDLKR
2. M0102-G12 (Fab, V domains shown) VH: EVQLLESGGGLVQPGGSLRLSCAASGFTFSKYKMVWVRQAPGKGLEWVSSIYPSGGITAYADSVKGRFTISRDNSKNTLYLQMNSLRAEDTAMYYCAKDITPGGGSGFRLPKNYYYYGMDVWGQGTTVTVSS VL: AQSELTQPPSASGTPGQRVTISCSGTLSNIGTNIVSWFQQLPGTAPKLLIYNDHRRPSGVPDRFSGSKSATSASLAISGLQSEDEADYYCAAWDDSLNGVVFGGGTKLTVLS
3. M0139-E12 (Fab, V domains shown) VH: EVQLLESGGGLVQPGGSLRLSCAASGFTFSWYSMNWVRQAPGKGLEWVSSIGPSGGGTKYADSVKGRFTISRDNSKNTLYLQMNSLRAEDTAVYYCASRGQRKQWLPPNGAFDIWGQGTMVTVSS VL: DIQMTQSPSSVSASVGDRVTMTCRASRGISNWLAWYQQKPGKAPELLIHSASTLHAGVPSRFSGSGSGTDFTLTISSLQPGDFATYYCQEGNSFPYTFGQGTNLQIKR
4. M0117-F04 (Fab, V domains shown) VH: EVQLLESGGGLVQPGGSLRLSCAASGFTFSMYVMNWVRQAPGKGLEWVSRIGSSGGGTLYADSVKGRFTISRDNSKNTLYLQMNSLRAEDTAVYYCARVSVYRIRNYYYYAMDVWGQGTTVTVSS VL: DIQMTQSPSSLSASVGDRVTITCRASQGIGNYLAWYQQKPGKAPNLLIYKTSNLQSGVPSRFRGSGSGTEFTLTITSVQPDDFATYFCQRYDSYSQYIFGQGTKLETKR

Ans:
2.5
3.3
2.9
5.2
